assayed_system: Muscarinic acetylcholine receptor M2 (Homo sapiens)
procedure_text: Displacement of [3H]-NMS from muscarinic M2 receptor (unknown origin) expressed in A9 cells by scintillation counting analysis
Assay type: cell-based
Sequence (P08172 whole entry, looked up): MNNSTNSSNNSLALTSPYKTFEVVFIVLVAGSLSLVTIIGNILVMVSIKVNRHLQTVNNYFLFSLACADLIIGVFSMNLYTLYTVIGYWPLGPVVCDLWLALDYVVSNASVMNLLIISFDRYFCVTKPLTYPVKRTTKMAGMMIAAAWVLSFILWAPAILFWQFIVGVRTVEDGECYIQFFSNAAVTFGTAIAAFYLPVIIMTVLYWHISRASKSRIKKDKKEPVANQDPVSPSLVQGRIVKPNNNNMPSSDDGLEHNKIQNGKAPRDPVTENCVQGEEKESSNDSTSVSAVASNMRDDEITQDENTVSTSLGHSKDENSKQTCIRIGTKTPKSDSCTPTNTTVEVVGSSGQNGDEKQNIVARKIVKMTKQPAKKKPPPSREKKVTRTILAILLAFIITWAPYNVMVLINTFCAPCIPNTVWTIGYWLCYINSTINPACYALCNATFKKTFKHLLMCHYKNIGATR
measured_attribute: Ki

## Task # returns recorded Ki (system: Muscarinic acetylcholine receptor M2 (Homo sapiens)) for "CCN(CC)CCCCC1CCN(CC(=O)N2c3ccccc3NC(=O)c3ccccc32)CC1"
## Result 0.316 nM

----------
assayed_system: Muscarinic acetylcholine receptor M2 (Homo sapiens)
procedure_text: Binding affinity to human muscarinic M2 receptor expressed in CHO-K9 cells assessed as unspecific binding at Kd incubated in dark at 22 degree C for 2 hrs in presence of atropine by FACSCalibur flow cytometric saturation binding study relative to control
Type: cell-based
experimental_context: read-out: Kd
Sequence (P08172 whole entry): as the sequence (P08172 whole entry, looked up) above
measured_attribute: Kd (nM)
Give bare numbers, in nM.

## Task Which measured Kd value corresponds to "CN(C)c1ccc2c(-c3ccc(C(=O)NCCN4CCN(CCCCC5CCN(CC(=O)N6c7ccccc7NC(=O)c7ccccc76)CC5)CC4)cc3C(=O)[O-])c3ccc(=[N+](C)C)cc-3oc2c1" ?
## Result 0.6

----------
I'd be grateful if you could share measured pKd for these entries.
assayed_system: Muscarinic acetylcholine receptor M2 (Homo sapiens, UniProt P08172)
procedure_text: Binding affinity to human muscarinic M2 receptor expressed in CHO-K9 cells assessed as unspecific binding at Kd incubated in dark at 22 degree C for 2 hrs in presence of atropine by FACSCantoII flow cytometric saturation binding study relative to control
Type: cell-based
experimental_context: read-out: Kd
One number for each entry, as −log10 of the molar value.

compound_string	pKd
Cc1cc(/C=C/c2cc3c4c(c2)CCCN4CCC3)cc(C)[n+]1CCNC(=O)CCc1cn(CCCCC2CCN(CC(=O)N3c4ccccc4NC(=O)c4ccccc43)CC2)cn1	8.42

Report pKd for each item below.
1. Cc1cc(/C=C/C=C/c2ccc(N(C)C)cc2)cc(C)[n+]1CCNC(=O)CCc1cn(CCCCC2CCN(CC(=O)N3c4ccccc4NC(=O)c4ccccc43)CC2)cn1
2. Cc1cc(/C=C/c2cc3c4c(c2)CCCN4CCC3)cc(C)[n+]1CCN1CCN(CCCCC2CCN(CC(=O)N3c4ccccc4NC(=O)c4ccccc43)CC2)CC1

## Result
1. 8.70
2. 8.72

----------
I'd be grateful if you could share measured log10(Ki) for these entries.
assayed_system: Muscarinic acetylcholine receptor M1 (Homo sapiens)
Sequence (P11229 whole entry): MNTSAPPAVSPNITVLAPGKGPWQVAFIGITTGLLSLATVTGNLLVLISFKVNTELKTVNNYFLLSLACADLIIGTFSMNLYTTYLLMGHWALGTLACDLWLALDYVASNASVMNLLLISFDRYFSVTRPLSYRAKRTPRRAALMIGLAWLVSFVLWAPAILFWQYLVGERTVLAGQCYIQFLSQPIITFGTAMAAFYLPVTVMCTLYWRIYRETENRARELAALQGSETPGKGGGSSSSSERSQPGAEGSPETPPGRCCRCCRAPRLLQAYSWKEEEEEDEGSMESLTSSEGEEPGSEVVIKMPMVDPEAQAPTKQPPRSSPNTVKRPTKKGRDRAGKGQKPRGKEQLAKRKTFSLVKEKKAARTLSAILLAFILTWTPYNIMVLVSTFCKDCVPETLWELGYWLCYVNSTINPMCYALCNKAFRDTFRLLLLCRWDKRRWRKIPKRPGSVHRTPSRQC
procedure_text: Displacement of [3H]NMS from human recombinant muscarinic receptor M1 expressed in CHO-K9 cell membranes measured after 3 hrs by radioligand competition binding assay
Recorded Ki (log10, nM)

# example entries with known answers
molecule	reported
Cc1cc(/C=C/C=C/c2ccc(N(C)C)cc2)cc(C)[n+]1CCNC(=O)CCc1cn(CCCCC2CCN(CC(=O)N3c4ccccc4NC(=O)c4ccccc43)CC2)cn1	0.69
O=C(CCCCCNC(=O)COc1ccc(/C=C/C2=[N+]3C(=Cc4ccc(-c5cccs5)n4[B-]3(F)F)C=C2)cc1)NCCNC(=O)CCc1cn(CCCCC2CCN(CC(=O)N3c4ccccc4NC(=O)c4ccccc43)CC2)cn1	0.00
CN(C)c1ccc2c(-c3ccc(C(=O)NCCN4CCN(CCCCC5CCN(CC(=O)N6c7ccccc7NC(=O)c7ccccc76)CC5)CC4)cc3C(=O)[O-])c3ccc(=[N+](C)C)cc-3oc2c1	0.41

Report log10(Ki) for each item below.
1. Cc1scc2c1N(C(=O)CN1CCN(CCCCCCCCCCNC(=O)Cc3ccc4c(c3)C(C)(C)C3=C5C=C6C7=[N+](CCC6OC5CCN34)c3ccc(S(=O)(=O)[O-])cc3C7(C)C)CC1)c1ccccc1NC2=O (stereo not drawn)
2. CN(C)c1ccc2c(-c3ccc(C(=O)NCCNC(=O)CCc4cn(CCCCC5CCN(CC(=O)N6c7ccccc7NC(=O)c7ccccc76)CC5)cn4)cc3C(=O)[O-])c3ccc(=[N+](C)C)cc-3oc2c1
3. Cc1cc(/C=C/c2cc3c4c(c2)CCCN4CCC3)cc(C)[n+]1CCN1CCN(CCCCC2CCN(CC(=O)N3c4ccccc4NC(=O)c4ccccc43)CC2)CC1
4. Cc1scc2c1N(C(=O)CN1CCN(CCCCCCCCCCNC(=O)c3ccc(-c4c5ccc(=N)c(S(=O)(=O)O)c-5oc5c(S(=O)(=O)O)c(N)ccc45)c(C(=O)O)c3)CC1)c1ccccc1NC2=O
5. Cc1cc(/C=C/c2cc3c4c(c2)CCCN4CCC3)cc(C)[n+]1CCNC(=O)CCc1cn(CCCCC2CCN(CC(=O)N3c4ccccc4NC(=O)c4ccccc43)CC2)cn1

## Result
1: -1.50; 2: 0.79; 3: 0.68; 4: -0.30; 5: 0.85

----------
assayed_system: Muscarinic acetylcholine receptor M2 (Homo sapiens, UniProt P08172)
procedure_text: Binding affinity to human muscarinic M2 receptor expressed in CHO-K9 cells assessed as unspecific binding at Kd incubated in dark at 22 degree C for 2 hrs in presence of atropine by FACSCantoII flow cytometric saturation binding study relative to control
Assay type: cell-based
experimental_context: read-out: Kd
measured_attribute: Kd
Kindly write the number and append the unit.

compound_string	assayed_system	Kd
Cc1cc(/C=C/C=C/c2ccc(N(C)C)cc2)cc(C)[n+]1CCN1CCN(CCCCC2CCN(CC(=O)N3c4ccccc4NC(=O)c4ccccc43)CC2)CC1	Muscarinic acetylcholine receptor M2 (Homo sapiens, UniProt P08172)	1.4 nM
O=C(CCCCCNC(=O)COc1ccc(/C=C/C2=[N+]3C(=Cc4ccc(-c5cccs5)n4[B-]3(F)F)C=C2)cc1)NCCNC(=O)CCc1cn(CCCCC2CCN(CC(=O)N3c4ccccc4NC(=O)c4ccccc43)CC2)cn1	Muscarinic acetylcholine receptor M2 (Homo sapiens, UniProt P08172)	4.5 nM

## Task Which measured Kd value corresponds to "CN(C)c1ccc2c(-c3ccc(C(=O)NCCNC(=O)CCc4cn(CCCCC5CCN(CC(=O)N6c7ccccc7NC(=O)c7ccccc76)CC5)cn4)cc3C(=O)[O-])c3ccc(=[N+](C)C)cc-3oc2c1" ?
## Result 2.4 nM

----------
assayed_system: Muscarinic acetylcholine receptor M4 (Homo sapiens, UniProt P08173)
Sequence (P08173 whole entry): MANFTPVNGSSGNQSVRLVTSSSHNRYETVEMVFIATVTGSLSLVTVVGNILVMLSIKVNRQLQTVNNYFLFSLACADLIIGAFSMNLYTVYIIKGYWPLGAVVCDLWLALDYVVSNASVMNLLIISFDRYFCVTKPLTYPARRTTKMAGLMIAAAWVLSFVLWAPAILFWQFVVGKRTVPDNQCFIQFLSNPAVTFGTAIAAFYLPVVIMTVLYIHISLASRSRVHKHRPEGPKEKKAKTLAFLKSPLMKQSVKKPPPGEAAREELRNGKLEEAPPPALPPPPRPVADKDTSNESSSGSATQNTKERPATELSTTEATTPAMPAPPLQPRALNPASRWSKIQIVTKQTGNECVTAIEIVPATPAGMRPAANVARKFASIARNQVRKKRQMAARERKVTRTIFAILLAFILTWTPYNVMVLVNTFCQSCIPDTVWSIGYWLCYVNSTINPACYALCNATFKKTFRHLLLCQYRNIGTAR
procedure_text: Displacement of [3H]NMS from human recombinant muscarinic receptor M4 expressed in CHO-K9 cell membranes measured after 3 hrs by radioligand competition binding assay
Set-up: species or system Membrane
measured_attribute: Ki (nM)
One number for each entry, in nM.

# example entries with known answers
compound_string	measured_attribute	units	reported
Cc1cc(/C=C/c2cc3c4c(c2)CCCN4CCC3)cc(C)[n+]1CCN1CCN(CCCCC2CCN(CC(=O)N3c4ccccc4NC(=O)c4ccccc43)CC2)CC1	Ki	nM	2.69
CN(C)c1ccc2c(-c3ccc(C(=O)NCCNC(=O)CCc4cn(CCCCC5CCN(CC(=O)N6c7ccccc7NC(=O)c7ccccc76)CC5)cn4)cc3C(=O)[O-])c3ccc(=[N+](C)C)cc-3oc2c1	Ki	nM	3.72

## Task Which measured Ki value corresponds to "Cc1cc(/C=C/c2cc3c4c(c2)CCCN4CCC3)cc(C)[n+]1CCNC(=O)CCc1cn(CCCCC2CCN(CC(=O)N3c4ccccc4NC(=O)c4ccccc43)CC2)cn1" ?
## Result 2.63

----------
assayed_system: Muscarinic acetylcholine receptor M2 (Homo sapiens, UniProt P08172)
procedure_text: Displacement of [3H]NMS from human recombinant muscarinic receptor M2 expressed in CHO-K9 cell membranes measured after 3 hrs by radioligand competition binding assay
Set-up: species or system Membrane
measured_attribute: Ki (nM)
Give bare numbers, in nM.

compound_string	units	Ki
Cc1cc(/C=C/C=C/c2ccc(N(C)C)cc2)cc(C)[n+]1CCNC(=O)CCc1cn(CCCCC2CCN(CC(=O)N3c4ccccc4NC(=O)c4ccccc43)CC2)cn1	nM	0.912
CN(C)c1ccc2c(-c3ccc(C(=O)NCCNC(=O)CCc4cn(CCCCC5CCN(CC(=O)N6c7ccccc7NC(=O)c7ccccc76)CC5)cn4)cc3C(=O)[O-])c3ccc(=[N+](C)C)cc-3oc2c1	nM	1.78

Now for the compound whose Ki we want.
## Task Which measured Ki value corresponds to "Cc1scc2c1N(C(=O)CN1CCN(CCCCCCCCCCNC(=O)c3ccc(-c4c5ccc(=N)c(S(=O)(=O)O)c-5oc5c(S(=O)(=O)O)c(N)ccc45)c(C(=O)O)c3)CC1)c1ccccc1NC2=O" ?
## Result 1.58

----------
assayed_system: Muscarinic acetylcholine receptor M2 (Homo sapiens, UniProt P08172)
procedure_text: Displacement of [3H]NMS from human recombinant muscarinic receptor M2 expressed in CHO-K9 cell membranes measured after 3 hrs by radioligand competition binding assay
Set-up: species or system Membrane
measured_attribute: pKi
Numbers only, as −log10 of the molar value.

molecule	assayed_system	pKi
O=C(CCCCCNC(=O)COc1ccc(/C=C/C2=[N+]3C(=Cc4ccc(-c5cccs5)n4[B-]3(F)F)C=C2)cc1)NCCNC(=O)CCc1cn(CCCCC2CCN(CC(=O)N3c4ccccc4NC(=O)c4ccccc43)CC2)cn1	Muscarinic acetylcholine receptor M2 (Homo sapiens, UniProt P08172)	9.16
Cc1scc2c1N(C(=O)CN1CCN(CCCCCCCCCCNC(=O)Cc3ccc4c(c3)C(C)(C)C3=C5C=C6C7=[N+](CCC6OC5CCN34)c3ccc(S(=O)(=O)[O-])cc3C7(C)C)CC1)c1ccccc1NC2=O (stereo unspecified)	Muscarinic acetylcholine receptor M2 (Homo sapiens, UniProt P08172)	10.40

Report pKi for each item below.
1. NCCN1CCN(CCCCC2CCN(CC(=O)N3c4ccccc4NC(=O)c4ccccc43)CC2)CC1
2. CN(C)c1ccc2c(-c3ccc(C(=O)NCCN4CCN(CCCCC5CCN(CC(=O)N6c7ccccc7NC(=O)c7ccccc76)CC5)CC4)cc3C(=O)[O-])c3ccc(=[N+](C)C)cc-3oc2c1
3. Cc1cc(/C=C/c2cc3c4c(c2)CCCN4CCC3)cc(C)[n+]1CCNC(=O)CCc1cn(CCCCC2CCN(CC(=O)N3c4ccccc4NC(=O)c4ccccc43)CC2)cn1
4. Cc1cc(/C=C/c2cc3c4c(c2)CCCN4CCC3)cc(C)[n+]1CCN1CCN(CCCCC2CCN(CC(=O)N3c4ccccc4NC(=O)c4ccccc43)CC2)CC1

## Result
[9.25, 9.62, 8.87, 9.02]
